Test system: PC-3 cells
test-summary: modified MTT method, proliferation of PC-3 cells
Type: cell-based
test-settings: Homo sapiens, PC-3, 72 h, Batch 2, 72 h; read-out: IC50 on the growth of PC-3 cells
pIC50: −log10 of the molar value.
Below, each entry is listed with its recorded pIC50.

Solved cases below.
# molecule, measurement-target, pIC50
rows = [
    ("C[C@H]1[C@@H](O)O[C@@H]2O[C@@]3(C)CC[C@H]4[C@H](C)CC[C@@H]1[C@@]24OO3 [dihydroartemisinin]", "PC-3 cells", "< 3.00"),
    ("COc1cccc2c1C(=O)c1c(O)c3c(c(O)c1C2=O)C[C@@](O)(C(=O)CO)C[C@@H]3O[C@H]1C[C@H](N)[C@H](O)[C@H](C)O1", "PC-3 cells", 5.43),
    ("CO[C@H]1O[C@@H]2O[C@@]3(C)CC[C@H]4[C@H](C)CC[C@@H]([C@H]1C)[C@@]24OO3", "PC-3 cells", "< 3.00"),
    ("C[C@H]1[C@H](OC(=O)CCC(=O)O)O[C@@H]2O[C@@]3(C)CC[C@H]4[C@H](C)CC[C@@H]1[C@@]24OO3 [artesunate]", "PC-3 cells", "< 3.00"),
]

Now take the following molecule into account.
Q. Which value of pIC50 has been reported for `C[C@@H]1CC[C@H]2[C@@H](C)C(=O)O[C@@H]3O[C@@]4(C)CC[C@@H]1[C@]32OO4` in the records?
A. < 3.00

----------
Below, each entry is listed with its recorded pIC50.
Tested on: A549 cells
test-summary: modified MTT method, proliferation of A549 cells
Assay type: cell-based
test-settings: Homo sapiens, A549, 24 h, Batch 1, 24 h; read-out: IC50 on the growth of A549 cells
pIC50: −log10 of the molar value.

Q. Please provide the recorded pIC50 for `C[C@@H]1CC[C@H]2[C@@H](C)C(=O)O[C@@H]3O[C@@]4(C)CC[C@@H]1[C@]32OO4` , tested on A549 cells.
A. < 3.00

Q. Same lookup for `COc1cccc2c1C(=O)c1c(O)c3c(c(O)c1C2=O)C[C@@](O)(C(=O)CO)C[C@@H]3O[C@H]1C[C@H](N)[C@H](O)[C@H](C)O1` , please.
A. 4.41

Q. Same lookup for `CO[C@H]1O[C@@H]2O[C@@]3(C)CC[C@H]4[C@H](C)CC[C@@H]([C@H]1C)[C@@]24OO3` , please.
A. < 3.00

Q. Same lookup for C[C@H]1[C@@H](O)O[C@@H]2O[C@@]3(C)CC[C@H]4[C@H](C)CC[C@@H]1[C@@]24OO3 [dihydroartemisinin] , please.
A. < 3.00

Q. Same lookup for C[C@H]1[C@H](OC(=O)CCC(=O)O)O[C@@H]2O[C@@]3(C)CC[C@H]4[C@H](C)CC[C@@H]1[C@@]24OO3 [artesunate] , please.
A. < 3.00

----------
Tested on: MKN-28 cells
test-summary: modified MTT method, proliferation of MKN-28 cells
Assay type: cell-based
test-settings: Homo sapiens, MKN-28, 72 h, secondary screening, Batch 3, read-out: IC50 on the growth of MKN-28 cells (72 h)
Below, each entry is listed with its recorded pIC50.
pIC50 field: float, defined as -log10 of concentration (mol/L).

Solved cases below.
# compound, pIC50
records = [
    ("C[C@@H]1CC[C@H]2[C@@H](C)C(=O)O[C@@H]3O[C@@]4(C)CC[C@@H]1[C@]32OO4", 2.79),
    ("CO[C@H]1O[C@@H]2O[C@@]3(C)CC[C@H]4[C@H](C)CC[C@@H]([C@H]1C)[C@@]24OO3", 3.28),
    ("C[C@H]1[C@@H](O)O[C@@H]2O[C@@]3(C)CC[C@H]4[C@H](C)CC[C@@H]1[C@@]24OO3 [dihydroartemisinin]", 4.78),
    ("COc1cccc2c1C(=O)c1c(O)c3c(c(O)c1C2=O)C[C@@](O)(C(=O)CO)C[C@@H]3O[C@H]1C[C@H](N)[C@H](O)[C@H](C)O1", 6.33),
]

Now take the following compound into account.
Q. Which value of pIC50 has been reported for C[C@H]1[C@H](OC(=O)CCC(=O)O)O[C@@H]2O[C@@]3(C)CC[C@H]4[C@H](C)CC[C@@H]1[C@@]24OO3 [artesunate] in the records?
A. 4.67

These entries and their values trace back to patent EP2926811A1.
